- assay-remarks: Mean survival days evaluated in vivo for prophylactic efficiency against murine systemic candidiasis at a dose of 10 mg/kg
- Type: functional
Kindly supply the reported Mean survival values for the records listed here.

## Task Which value of Mean survival has been reported for CCCCCCCCCCS[C@H](C)[C@](O)(Cn1cncn1)c1ccc(F)cc1F in the records?
## Result 9.1 days

## Task Which value of Mean survival has been reported for C[C@@H](SCCCCCCCCO)[C@](O)(Cn1cncn1)c1ccc(F)cc1F in the records?
## Result 4.3 days

## Task Which value of Mean survival has been reported for CCCCCS(=O)(=O)[C@H](C)[C@](O)(Cn1cncn1)c1ccc(F)cc1F in the records?
## Result 0.4 days

## Task Which value of Mean survival has been reported for CCS[C@H](C)[C@](O)(Cn1cncn1)c1ccc(F)cc1F in the records?
## Result 10 days

## Task Which value of Mean survival has been reported for C[C@H]([C@](O)(Cn1cncn1)c1ccc(F)cc1F)S(=O)(=O)CCCCCCCCO in the records?
## Result 0.5 days

## Task Which value of Mean survival has been reported for CCCCS(=O)(=O)[C@H](C)[C@](O)(Cn1cncn1)c1ccc(F)cc1F in the records?
## Result 7.6 days

## Task Which value of Mean survival has been reported for CCCCCCCCCCCS(=O)(=O)[C@H](C)[C@](O)(Cn1cncn1)c1ccc(F)cc1F in the records?
## Result 1.1 days

## Task Which value of Mean survival has been reported for CCCCCCCCCS(=O)(=O)[C@H](C)[C@](O)(Cn1cncn1)c1ccc(F)cc1F in the records?
## Result 0.6 days

## Task Which value of Mean survival has been reported for C[C@H]([C@](O)(Cn1cncn1)c1ccc(F)cc1F)S(=O)(=O)CCCCCCO in the records?
## Result 1.4 days

## Task Which value of Mean survival has been reported for CCCS(=O)(=O)[C@H](C)[C@](O)(Cn1cncn1)c1ccc(F)cc1F in the records?
## Result 8.3 days

## Task Which value of Mean survival has been reported for CCCCCCCS[C@H](C)[C@](O)(Cn1cncn1)c1ccc(F)cc1F in the records?
## Result 10 days

## Task Which value of Mean survival has been reported for CCCCCCCCCCCS[C@H](C)[C@](O)(Cn1cncn1)c1ccc(F)cc1F in the records?
## Result 5.8 days

## Task Which value of Mean survival has been reported for CCCCS[C@H](C)[C@](O)(Cn1cncn1)c1ccc(F)cc1F in the records?
## Result 9.9 days

## Task Which value of Mean survival has been reported for CCCCCCCCS(=O)(=O)[C@H](C)[C@](O)(Cn1cncn1)c1ccc(F)cc1F in the records?
## Result 1.3 days

## Task Which value of Mean survival has been reported for C[C@@H](SCCCCCO)[C@](O)(Cn1cncn1)c1ccc(F)cc1F in the records?
## Result 9.8 days

## Task Which value of Mean survival has been reported for CCCCCCCCCCS(=O)(=O)[C@H](C)[C@](O)(Cn1cncn1)c1ccc(F)cc1F in the records?
## Result 3.9 days

## Task Which value of Mean survival has been reported for C[C@@H](SCCCCCCO)[C@](O)(Cn1cncn1)c1ccc(F)cc1F in the records?
## Result 2.8 days

## Task Which value of Mean survival has been reported for CCCCCCS(=O)(=O)[C@H](C)[C@](O)(Cn1cncn1)c1ccc(F)cc1F in the records?
## Result 2.6 days

## Task Which value of Mean survival has been reported for C[C@H]([C@](O)(Cn1cncn1)c1ccc(F)cc1F)S(=O)(=O)CCCCCCCO in the records?
## Result 1 days
